Sourced from ChEMBL document CHEMBL1127273

Target: Cholecystokinin receptor (Mus musculus) (UniProt O08786+P56481)
Assay: Ratio of CCK-A receptor to CCK-B receptor was determined
Type: protein assay
Residues, ends and D or L forms follow the SMILES beside them. *: point of attachment. NHPhenethyl = c1ccc(CCN*)cc1; Boc = CC(C)(C)OC(=O)*
# label = 1.0 if Ratio < 1 else 0.0

Below, 5 compounds whose answers are already recorded.
INSERT INTO measurements (compound, cat) VALUES
  ('CC(C)C[C@H](NC(=O)C(NC(=O)OC(C)(C)C)c1ccccc1)C(=O)N1CC(=O)N[C@@H](Cc2ccccc2)C1 (stereo not given in full)', 0.0),
  ('CCOC(=O)N[C@@H](Cc1c[nH]c2ccccc12)C(=O)N[C@@H](CC(C)C)C(=O)N1CC(=O)N[C@@H](Cc2ccccc2)C1', 1.0),
  ('CC(C)C[C@H](NC(=O)[C@H](Cc1c[nH]c2ccccc12)NC(=O)OC(C)(C)C)C(=O)N[C@@H](CC(=O)O)C(=O)NCCc1ccccc1 (Boc-Trp-Leu-Asp-NHPhenethyl)', 0.0),
  ('CC(C)C[C@H](NC(=O)[C@H](Cc1c[nH]c2ccccc12)NC(=O)OC(C)(C)C)C(=O)N1C[C@H](Cc2ccccc2)NC(=O)[C@H]1CC(=O)O (mixture of isomers)', 1.0),
  ('CC(C)C[C@H](NC(=O)[C@H](Cc1c[nH]c2ccccc12)NC(=O)OC(C)(C)C)C(=O)N1C[C@H](Cc2ccccc2)NC(=O)[C@@H]1CC(=O)O', 1.0);

Q: Regarding `CC(C)C[C@H](NC(=O)[C@H](Cc1c[nH]c2ccccc12)NC(=O)OC(C)(C)C)C(=O)N1CC(=O)N[C@@H](Cc2ccccc2)C1` , kindly confirm whether its Ratio is beneath 1.
Result: 1.0

Q: Regarding `CC(C)C[C@H](NC(=O)[C@H](Cc1c[nH]c2ccccc12)NC(=O)OC(C)(C)C)C(=O)N1CC(=O)N[C@H](Cc2ccccc2)C1` , kindly confirm whether its Ratio is beneath 1.
Result: 1.0

Q: Regarding `CC(C)C[C@H](NC(=O)Cc1c[nH]c2ccccc12)C(=O)N1C[C@H](Cc2ccccc2)NC(=O)[C@@H]1CC(=O)O` , kindly confirm whether its Ratio is beneath 1.
Result: 0.0

Q: Regarding `CC(C)C[C@H](NC(=O)[C@@H](N)Cc1c[nH]c2ccccc12)C(=O)N1C[C@H](Cc2ccccc2)NC(=O)[C@@H]1CC(=O)O` , kindly confirm whether its Ratio is beneath 1.
Result: 0.0

----------
Entries with reported pIC50 on Cholecystokinin receptor type A (Mus musculus, UniProt O08786)
Sequence (O08786 whole entry): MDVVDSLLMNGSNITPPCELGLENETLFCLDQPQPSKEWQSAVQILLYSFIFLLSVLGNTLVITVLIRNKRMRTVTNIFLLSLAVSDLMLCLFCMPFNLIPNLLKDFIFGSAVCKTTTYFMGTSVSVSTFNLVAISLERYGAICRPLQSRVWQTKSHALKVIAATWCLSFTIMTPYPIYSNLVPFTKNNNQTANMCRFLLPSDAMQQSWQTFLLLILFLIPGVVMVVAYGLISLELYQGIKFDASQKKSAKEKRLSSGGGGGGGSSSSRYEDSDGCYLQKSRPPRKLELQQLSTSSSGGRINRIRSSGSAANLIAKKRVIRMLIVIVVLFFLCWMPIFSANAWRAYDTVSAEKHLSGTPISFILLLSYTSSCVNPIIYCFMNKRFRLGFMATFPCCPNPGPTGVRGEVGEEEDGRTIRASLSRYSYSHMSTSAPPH
Answers are plain numbers, as −log10 of the molar value.

Please review the entries below; each comes with its answer.
INSERT INTO results (molecular_string, reported_metric, result) VALUES
  ('CCOC(=O)N[C@@H](Cc1c[nH]c2ccccc12)C(=O)N[C@@H](CC(C)C)C(=O)N1CC(=O)N[C@@H](Cc2ccccc2)C1', 'pIC50', 6.37),
  ('CC(C)C[C@H](NC(=O)[C@H](Cc1c[nH]c2ccccc12)NC(=O)OC(C)(C)C)C(=O)N1C[C@@H](Cc2ccccc2)NC(=O)[C@H]1CC(=O)O', 'pIC50', 5.20),
  ('CCCC[C@H](NC(=O)Cc1c[nH]c2ccccc12)C(=O)N1C[C@H](Cc2ccccc2)NC(=O)[C@@H]1CC(=O)O', 'pIC50', 5.14);

Switching to the query record.
Q: For the molecule shown here, `CC(C)C[C@H](NC(=O)[C@@H](N)Cc1c[nH]c2ccccc12)C(=O)N1C[C@H](Cc2ccccc2)NC(=O)[C@@H]1CC(=O)O` , give the reported pIC50.
Result: 4.29

----------
Target: Cholecystokinin receptor (Mus musculus) (UniProt O08786+P56481)
Assay: Ratio of CCK-A receptor to CCK-B receptor was determined
Assay type: protein assay
reported-metric: Ratio
Numbers only.

Please review the entries below; each comes with its answer.
INSERT INTO results (molecular_string, target_desc, result) VALUES
  ('CC(C)C[C@H](NC(=O)CCc1c[nH]c2ccccc12)C(=O)N1C[C@H](Cc2ccccc2)NC(=O)[C@@H]1CC(=O)O', 'Cholecystokinin receptor (Mus musculus) (UniProt O08786+P56481)', 6.3),
  ('CCCC[C@H](NC(=O)Cc1c[nH]c2ccccc12)C(=O)N1C[C@H](Cc2ccccc2)NC(=O)[C@@H]1CC(=O)O', 'Cholecystokinin receptor (Mus musculus) (UniProt O08786+P56481)', 6),
  ('CC(C)C[C@H](NC(=O)[C@H](Cc1c[nH]c2ccccc12)NC(=O)OC(C)(C)C)C(=O)N1C[C@@H](Cc2ccccc2)NC(=O)[C@H]1CC(=O)O', 'Cholecystokinin receptor (Mus musculus) (UniProt O08786+P56481)', 0.09),
  ('CC(C)C[C@H](NC(=O)[C@H](Cc1c[nH]c2ccccc12)NC(=O)OCc1ccccc1)C(=O)N1CC(=O)N[C@H](Cc2ccccc2)C1', 'Cholecystokinin receptor (Mus musculus) (UniProt O08786+P56481)', 0.0009),
  ('CC(C)C[C@H](NC(=O)[C@H](Cc1c[nH]c2ccccc12)NC(=O)OCc1ccccc1)C(=O)N1CC(=O)N[C@@H](Cc2ccccc2)C1', 'Cholecystokinin receptor (Mus musculus) (UniProt O08786+P56481)', 0.0036);

Provide reported Ratio for each item, in the same order as listed.
1. CC(C)C[C@H](NC(=O)[C@H](Cc1c[nH]c2ccccc12)NC(=O)OC(C)(C)C)C(=O)N1C[C@H](CCc2ccccc2)NC(=O)[C@@H]1CC(=O)O
2. CC(C)C[C@H](NC(=O)[C@H](Cc1c[nH]c2ccccc12)NC(=O)OC(C)(C)C)C(=O)N1C[C@@H](Cc2ccccc2)NC(=O)[C@@H]1CC(=O)O

Result:
0.077
0.21
